Molecular target: T1, recombinant human FGF23 (R179Q) (human, UniProt Q9GZV9 25-251)
T1 construct: also called rhFGF23(R179Q); hFGF23(R179Q)
T1 sequence (looked up): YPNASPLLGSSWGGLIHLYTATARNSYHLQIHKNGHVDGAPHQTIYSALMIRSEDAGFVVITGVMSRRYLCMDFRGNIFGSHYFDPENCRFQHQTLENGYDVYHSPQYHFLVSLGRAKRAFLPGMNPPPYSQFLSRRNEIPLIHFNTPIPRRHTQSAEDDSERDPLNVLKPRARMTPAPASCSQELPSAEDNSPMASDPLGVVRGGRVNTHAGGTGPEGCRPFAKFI
Assay: SPR, antibody captured on hIgG chip, human FGF23 analyte
Readout Label: KD ratio (variant antibody KD/burosumab KD)
Form field (numeric): enter value without unit.

Recorded KD ratio (variant antibody KD/burosumab KD), per entry:
Binder	Quantitative Result
UGX203 (antibody, human IgG1, kappa, V domains shown, also called HC:S59E, LC:S52D; S59E/S52D) VH: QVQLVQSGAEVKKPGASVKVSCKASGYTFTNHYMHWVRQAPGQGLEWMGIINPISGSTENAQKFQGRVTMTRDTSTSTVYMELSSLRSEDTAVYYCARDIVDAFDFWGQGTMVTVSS VL: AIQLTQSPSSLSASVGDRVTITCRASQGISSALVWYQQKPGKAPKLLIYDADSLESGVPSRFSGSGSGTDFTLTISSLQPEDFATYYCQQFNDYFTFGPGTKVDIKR	2
UGX204 (antibody, human IgG1, kappa, V domains shown, also called HC:S59E, LC:S52E; S59E/S52E) VH: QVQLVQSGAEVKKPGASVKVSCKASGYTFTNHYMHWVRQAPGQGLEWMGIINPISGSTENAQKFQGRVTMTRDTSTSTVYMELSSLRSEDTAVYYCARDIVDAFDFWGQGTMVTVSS VL: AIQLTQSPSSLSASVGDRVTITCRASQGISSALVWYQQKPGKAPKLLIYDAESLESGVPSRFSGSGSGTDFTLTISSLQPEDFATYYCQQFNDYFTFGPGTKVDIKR	2
UGX144 (antibody, human IgG1, kappa, V domains shown, also called LC:Y94D; Y94D) VH: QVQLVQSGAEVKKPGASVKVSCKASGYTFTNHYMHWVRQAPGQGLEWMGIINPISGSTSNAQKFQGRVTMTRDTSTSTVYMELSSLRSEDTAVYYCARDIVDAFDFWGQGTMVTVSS VL: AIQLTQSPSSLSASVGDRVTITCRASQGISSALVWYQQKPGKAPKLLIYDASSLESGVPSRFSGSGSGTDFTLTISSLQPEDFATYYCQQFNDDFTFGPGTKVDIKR	4
UGX126 (antibody, human IgG1, kappa, V domains shown, also called LC:S52D; S52D) VH: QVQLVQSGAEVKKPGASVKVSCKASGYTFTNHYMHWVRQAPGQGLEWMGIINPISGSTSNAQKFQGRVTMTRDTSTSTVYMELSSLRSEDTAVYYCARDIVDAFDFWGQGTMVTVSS VL: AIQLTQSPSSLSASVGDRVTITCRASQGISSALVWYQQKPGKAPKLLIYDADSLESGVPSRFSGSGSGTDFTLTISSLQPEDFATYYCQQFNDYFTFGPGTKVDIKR	2

Now consider the entry below.
Quick note, KD ratio (variant antibody KD/burosumab KD) for UGX206 (antibody, human IgG1, kappa, V domains shown, also called HC:S59E, LC:Y94E; S59E/Y94E) VH: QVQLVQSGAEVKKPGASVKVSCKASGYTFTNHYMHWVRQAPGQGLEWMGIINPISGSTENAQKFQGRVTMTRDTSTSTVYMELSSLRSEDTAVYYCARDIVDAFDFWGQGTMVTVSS VL: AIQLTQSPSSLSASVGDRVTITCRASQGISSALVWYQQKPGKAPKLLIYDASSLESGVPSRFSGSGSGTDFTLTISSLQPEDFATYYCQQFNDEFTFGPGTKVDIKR landed at 3

From: patent US20260250371A1
